# test_target: SARS-Cov-2 3CLpro (Severe acute respiratory syndrome coronavirus 2, UniProt P0DTD1)
# Construct: SARS-Cov-2 3CLpro and HRV3C Duplex Assay
# test_method_notes: SARS-Cov-2 3CLpro and HRV3C duplex assay (SAMDI-MS): 3CLpro
# Format: biochemical
# condition_details: 3CLpro, duplex assay, 30 mins preincubation; class symbols; read-out: SARS-Cov-2 IC50
pIC50: −log10 of the molar value.
Task for the reader: assign each of the following molecules its reported pIC50.

// each listed molecule needs a value for pIC50
1. O=C(NC1CC1)C(=O)[C@H](C[C@@H]1CCNC1=O)NC(=O)[C@@H]1CC2(CCN1C(=O)[C@H]1C[C@@]13CCCc1ccccc13)CC2 (relative stereo) [Compound 34A]
2. O=C(NC1CC1)C(=O)[C@H](C[C@@H]1CCNC1=O)NC(=O)[C@@H]1CC2(CCN1C(=O)c1cc3ccccc3n1C1CC1)CC2
3. Cc1sc(C(=O)N2CCC3(CC3)C[C@H]2C(=O)N[C@@H](C[C@@H]2CCNC2=O)C(=O)C(=O)NC2CC2)nc1-c1ccccc1
4. Cn1c(C(=O)N2CCC3(CC3)C[C@H]2C(=O)N[C@@H](C[C@@H]2CCNC2=O)C(=O)CO)cc2ccccc21
5. CC(C)n1c(C(=O)N2CCC3(CC3)C[C@H]2C(=O)N[C@@H](C[C@@H]2CCNC2=O)C(=O)C(=O)NC2CC2)cc2ccccc21
6. Cc1ccc2cc(C(=O)N3CCC4(CC4)C[C@H]3C(=O)N[C@@H](C[C@@H]3CCNC3=O)C(=O)C(=O)NC3CC3)n(C)c2c1

Reply:
1. 5.70 to 6.70
2. > 7.70
3. 5.70 to 6.70
4. 6.70 to 7.70
5. > 7.70
6. 6.70 to 7.70
